Each recorded value in this set is attributed to patent US9802945B2.

target system: GABA channels expressing the α1 subunit (GABRA1-GABRB3-GABRG2) in HEK cells (Homo sapiens (Human), UniProt P14867+P18507)
Sequence (P14867 28-456): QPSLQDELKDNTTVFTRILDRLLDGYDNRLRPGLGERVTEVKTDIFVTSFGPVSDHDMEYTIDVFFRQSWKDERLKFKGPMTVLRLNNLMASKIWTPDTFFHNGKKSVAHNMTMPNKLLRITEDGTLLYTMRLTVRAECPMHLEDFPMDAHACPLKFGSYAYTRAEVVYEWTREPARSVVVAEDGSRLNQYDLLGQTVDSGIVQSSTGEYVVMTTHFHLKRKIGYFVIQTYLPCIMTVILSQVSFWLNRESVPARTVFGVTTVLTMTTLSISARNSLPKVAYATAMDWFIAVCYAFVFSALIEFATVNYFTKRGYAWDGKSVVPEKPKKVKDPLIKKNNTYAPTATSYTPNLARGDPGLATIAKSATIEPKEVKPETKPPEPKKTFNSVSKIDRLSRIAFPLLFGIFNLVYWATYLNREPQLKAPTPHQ
Sequence (P28472 26-473 partner): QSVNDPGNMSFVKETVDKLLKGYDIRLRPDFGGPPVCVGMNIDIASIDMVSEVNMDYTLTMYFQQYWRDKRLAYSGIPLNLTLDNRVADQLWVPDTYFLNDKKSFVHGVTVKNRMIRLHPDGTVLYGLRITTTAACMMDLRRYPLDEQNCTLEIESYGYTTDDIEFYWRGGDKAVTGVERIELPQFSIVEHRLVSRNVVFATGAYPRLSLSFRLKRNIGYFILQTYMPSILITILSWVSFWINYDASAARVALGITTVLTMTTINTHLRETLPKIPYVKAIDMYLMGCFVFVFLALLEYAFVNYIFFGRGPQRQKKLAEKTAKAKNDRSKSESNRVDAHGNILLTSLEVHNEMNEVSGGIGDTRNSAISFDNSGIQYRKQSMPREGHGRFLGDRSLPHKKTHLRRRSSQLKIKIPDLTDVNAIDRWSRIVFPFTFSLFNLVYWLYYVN
Sequence (P18507 40-475): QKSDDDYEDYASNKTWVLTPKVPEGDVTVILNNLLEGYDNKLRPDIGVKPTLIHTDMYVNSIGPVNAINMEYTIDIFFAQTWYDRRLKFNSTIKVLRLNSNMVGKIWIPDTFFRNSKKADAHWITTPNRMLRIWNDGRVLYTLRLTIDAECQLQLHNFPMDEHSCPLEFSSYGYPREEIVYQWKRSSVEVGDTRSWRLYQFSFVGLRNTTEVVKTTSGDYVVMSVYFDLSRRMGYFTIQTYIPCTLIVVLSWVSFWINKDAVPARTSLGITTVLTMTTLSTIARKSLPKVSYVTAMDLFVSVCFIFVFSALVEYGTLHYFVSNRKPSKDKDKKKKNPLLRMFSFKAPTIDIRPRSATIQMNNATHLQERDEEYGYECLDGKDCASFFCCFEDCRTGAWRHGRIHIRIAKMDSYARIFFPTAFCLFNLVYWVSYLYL
procedure summary: QPatch whole-cell patch-clamp electrophysiology, enhancement of GABA current (α1)
Format: cell-based
condition: −60 mV, approximately EC10 GABA
reported property: α1 PAM (% enhancement of gamma-aminobutyric acid current) (%)
Report as a plain number; the unit % is understood.

[
  {
    "compound": "CCn1cnc2c(-c3ccc(F)c(-c4cccc(C(N)=O)c4)c3)cnnc21.O=C(O)C(F)(F)F",
    "reported value": "−34"
  }
]

Quick note, α1 PAM (% enhancement of gamma-aminobutyric acid current) for `CCn1cnc2c(-c3ccc(F)c(-c4ccc(C(=O)NC)cc4OC)c3)cnnc21` landed at −29

For this compound ( `CCn1cnc2c(-c3ccc(F)c(-c4ccc5c(c4)C(=O)NC5)c3)cnnc21` ), measured α1 PAM (% enhancement of gamma-aminobutyric acid current) is −61

Looking up `CCn1cnc2c(-c3ccc(F)c(-c4cc(F)cc(C(=O)NC)c4)c3)cnnc21.O=C(O)C(F)(F)F` , I see its α1 PAM (% enhancement of gamma-aminobutyric acid current) listed as 14

###

target system: human recombinant GABA A receptor containing the alpha2, beta2, and gamma3 subunits (Homo sapiens, UniProt P47869+Q99928)
Sequence (P47869 29-451 limits assumed): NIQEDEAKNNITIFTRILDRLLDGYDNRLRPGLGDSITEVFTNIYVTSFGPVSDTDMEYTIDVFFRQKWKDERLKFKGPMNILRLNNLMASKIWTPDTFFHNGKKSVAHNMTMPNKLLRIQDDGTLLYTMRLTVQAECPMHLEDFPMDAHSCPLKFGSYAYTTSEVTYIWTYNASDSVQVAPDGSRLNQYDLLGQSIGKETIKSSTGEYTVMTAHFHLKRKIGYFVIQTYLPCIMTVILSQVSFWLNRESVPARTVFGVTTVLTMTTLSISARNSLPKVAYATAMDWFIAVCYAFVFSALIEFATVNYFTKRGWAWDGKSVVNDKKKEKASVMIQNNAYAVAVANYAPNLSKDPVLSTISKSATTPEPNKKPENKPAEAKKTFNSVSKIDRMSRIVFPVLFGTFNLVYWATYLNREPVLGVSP
Sequence (Q99928 18-467 limits assumed): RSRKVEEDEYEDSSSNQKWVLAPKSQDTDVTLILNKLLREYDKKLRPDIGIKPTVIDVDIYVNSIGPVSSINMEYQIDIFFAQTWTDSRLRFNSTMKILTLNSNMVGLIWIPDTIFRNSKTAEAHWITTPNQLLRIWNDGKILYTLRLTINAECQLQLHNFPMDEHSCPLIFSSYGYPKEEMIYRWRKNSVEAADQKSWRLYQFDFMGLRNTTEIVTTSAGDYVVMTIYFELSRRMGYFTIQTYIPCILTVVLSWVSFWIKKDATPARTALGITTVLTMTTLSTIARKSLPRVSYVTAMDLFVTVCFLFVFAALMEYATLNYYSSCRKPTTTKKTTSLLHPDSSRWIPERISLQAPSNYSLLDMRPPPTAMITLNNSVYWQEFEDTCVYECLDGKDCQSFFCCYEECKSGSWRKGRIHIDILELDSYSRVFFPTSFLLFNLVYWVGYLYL
procedure summary: Radioligand competition binding assay with [3H]Ro-15-1788 (Flumazenil)
condition: read-out: GABA-α2 Ki; hGABA A alpha2beta2gamma3 membranes from HEK cells; geometric mean of at least two replicates
Structures can show the parent of a compound that is named as a salt.
Reported Ki values for the following compounds.
Please state the value followed by its unit.

[
  {
    "compound": "CC(C)n1cnc2c(-c3ccc(F)c(-c4ccc(C(N)=O)cc4)c3)cnnc21",
    "Ki": "10.7 nM"
  },
  {
    "compound": "CCn1cnc2c(-c3ccc(F)c(-c4cc(C(=O)N(C)C)ccc4OC)c3)cnnc21",
    "Ki": "340 nM"
  },
  {
    "compound": "CCn1cnc2c(-c3ccc(F)c(-c4cc(C(=O)N(C)C)ccc4F)c3)cnnc21",
    "Ki": "30.9 nM"
  },
  {
    "compound": "CC(C)n1cnc2c(-c3ccc(F)c(-c4ccc5c(c4)CN(C)C5=O)c3)cnnc21",
    "Ki": "6.4 nM"
  }
]

For CCn1cnc2c(-c3ccc(F)c(-c4cccc(C(N)=O)c4)c3)cnnc21.O=C(O)C(F)(F)F [Example 15, trifluoroacetate salt] the compound record lists Ki as 20.3 nM

Ki recorded for this compound, CCn1cnc2c(-c3ccc(F)c(-c4ccc(C(=O)N(C)C)c(F)c4)c3)cnnc21 [Example 17, trifluoroacetate salt] , is 52.8 nM

The compound identified as `CN1Cc2cc(-c3cc(-c4cnnc5c4ncn5C4CC4)ccc3F)ccc2C1=O` registered its Ki at 54.7 nM

Measured Ki, CCn1cnc2c(-c3ccc(F)c(-c4cc(F)cc(C(=O)NC)c4)c3)cnnc21.O=C(O)C(F)(F)F [Example 19, trifluoroacetate salt] : 51 nM

What the record says about `CNC(=O)c1ccc(F)c(-c2cc(-c3cnnc4c3ncn4C3CC3)ccc2F)c1` : Ki is 29 nM

Measured Ki, CCn1cnc2c(-c3ccc(F)c(-c4ccc(C(=O)NC(C)C)cc4)c3)cnnc21 [Example 18, trifluoroacetate salt] : 19.3 nM
